tested on: KM12 colon; assay: NCI tumour cell line growth inhibition, 48 h
observable: TGI

Task: Quick check: TGI of COc1ccc(/C=c2\sc3n(c2=O)C2C(NN=3)N(C)C(=O)N2C)cc1 (stereo not given) ?
Output: > 100 µM

Task: Quick check: TGI of CC1=NN(C(=O)CC(=O)Nc2ccccc2Cl)C(=O)C1N=Nc1ccc(S(=O)(=O)c2ccc(N=NC3C(=O)N(C(=O)CC(=O)Nc4ccccc4Cl)N=C3C)cc2)cc1 (stereo not given) ?
Output: > 100 µM

Task: Quick check: TGI of O=[N+]([O-])c1ccc(Oc2nc(Nc3ccc(O[C@H]4CO[C@H]5[C@@H]4OC[C@@H]5O)c(Cl)c3)ncc2F)c(Cl)c1 ?
Output: 2.22 µM

Task: Quick check: TGI of O=C(c1ccccc1)n1cc(-c2ccccc2)c2c(=O)[nH]cnc21 ?
Output: > 100 µM

Task: Quick check: TGI of COC(OC)C1OCC(n2cc(F)c(=O)[nH]c2=O)C1O (stereo not given) ?
Output: > 100 µM

Task: Quick check: TGI of ON(Cc1ccccc1)C(=S)c1ccccc1 ?
Output: > 63.6 µM

Task: Quick check: TGI of C(/Cc1ccc2c(c1)OCO2)=N\NC1=NCCN1 ?
Output: > 100 µM

Task: Quick check: TGI of CC(C)N1CCN(Cc2ccc3c(NNC(=O)c4ccccc4)nc4cc(F)ccc4n23)CC1 ?
Output: 11 µM

Task: Quick check: TGI of COc1cc(C2SC(C)C(=O)N2c2ccc(-c3csc(NS(=O)(=O)c4ccc(Cl)c(OC)c4)n3)cc2)ccc1O (stereo not given) ?
Output: 48.3 µM

Task: Quick check: TGI of COP(=O)(OC)C(NC(=O)C(F)(F)F)(c1ccccc1)C(F)(F)F (stereo not given) ?
Output: > 100 µM

Task: Quick check: TGI of COC(=O)C1=C(OC(=O)/C=C/c2ccccc2)C(C(=O)OC)[C@@]2(O)[C@@H](C(=O)OC)[C@H](C)C[C@@H]1[C@@H]2C(=O)OC (stereo not given in full) ?
Output: > 100 µM

Task: Quick check: TGI of Nc1c(O)cc(N=C2C(=O)C=CC=C2C(=O)O)c(O)c1C(=O)O ?
Output: > 100 µM

Task: Quick check: TGI of O=[N+]([O-])c1ccc(C(Nc2ccccc2)P(c2ccccc2)c2ccccc2)cc1 (stereo not given) ?
Output: > 100 µM

Task: Quick check: TGI of COc1cc(O)c2c(=O)c3c(C)cccc3n(C)c2c1 ?
Output: > 10 µM

Task: Quick check: TGI of Cn1c(=O)c(NC(=O)C(Cl)(Cl)Cl)nc2ccccc21 ?
Output: > 100 µM

Task: Quick check: TGI of CC(=O)OC(Cc1ccc2ccccc2n1)(C(F)(F)F)C(F)(F)F ?
Output: 12.7 µM

Task: Quick check: TGI of O=S(=O)(O)c1ccc(N=Nc2nc(C(F)(F)F)c(C(F)(F)F)[nH]2)cc1 ?
Output: > 100 µM

Task: Quick check: TGI of CCOc1cc(Br)c(C(C)NC(=O)c2cccc(OC)c2)cc1OCC (stereo not given) ?
Output: > 100 µM

Task: Quick check: TGI of O=C(O)C1CCCCC1c1c2ccc(=O)c(O)c-2oc2c(O)c(O)ccc12 (stereo not given) ?
Output: > 100 µM

Task: Quick check: TGI of COc1ccc2c(c1)C/C(=C\c1cccc3ccccc13)C2=O ?
Output: > 100 µM
